Source: patent US8410112B2

biological target: full-length ATR (Homo sapiens, UniProt Q13535); construct: in the presence of 5 nM full-length ATR; assay: ATR Inhibition Assay (radioactive-phosphate incorporation); conditions: Ki(app); 5 nM full-length ATR, 10 μM ATP, 800 μM target peptide, 25° C.
Sequence (Q13535 whole entry): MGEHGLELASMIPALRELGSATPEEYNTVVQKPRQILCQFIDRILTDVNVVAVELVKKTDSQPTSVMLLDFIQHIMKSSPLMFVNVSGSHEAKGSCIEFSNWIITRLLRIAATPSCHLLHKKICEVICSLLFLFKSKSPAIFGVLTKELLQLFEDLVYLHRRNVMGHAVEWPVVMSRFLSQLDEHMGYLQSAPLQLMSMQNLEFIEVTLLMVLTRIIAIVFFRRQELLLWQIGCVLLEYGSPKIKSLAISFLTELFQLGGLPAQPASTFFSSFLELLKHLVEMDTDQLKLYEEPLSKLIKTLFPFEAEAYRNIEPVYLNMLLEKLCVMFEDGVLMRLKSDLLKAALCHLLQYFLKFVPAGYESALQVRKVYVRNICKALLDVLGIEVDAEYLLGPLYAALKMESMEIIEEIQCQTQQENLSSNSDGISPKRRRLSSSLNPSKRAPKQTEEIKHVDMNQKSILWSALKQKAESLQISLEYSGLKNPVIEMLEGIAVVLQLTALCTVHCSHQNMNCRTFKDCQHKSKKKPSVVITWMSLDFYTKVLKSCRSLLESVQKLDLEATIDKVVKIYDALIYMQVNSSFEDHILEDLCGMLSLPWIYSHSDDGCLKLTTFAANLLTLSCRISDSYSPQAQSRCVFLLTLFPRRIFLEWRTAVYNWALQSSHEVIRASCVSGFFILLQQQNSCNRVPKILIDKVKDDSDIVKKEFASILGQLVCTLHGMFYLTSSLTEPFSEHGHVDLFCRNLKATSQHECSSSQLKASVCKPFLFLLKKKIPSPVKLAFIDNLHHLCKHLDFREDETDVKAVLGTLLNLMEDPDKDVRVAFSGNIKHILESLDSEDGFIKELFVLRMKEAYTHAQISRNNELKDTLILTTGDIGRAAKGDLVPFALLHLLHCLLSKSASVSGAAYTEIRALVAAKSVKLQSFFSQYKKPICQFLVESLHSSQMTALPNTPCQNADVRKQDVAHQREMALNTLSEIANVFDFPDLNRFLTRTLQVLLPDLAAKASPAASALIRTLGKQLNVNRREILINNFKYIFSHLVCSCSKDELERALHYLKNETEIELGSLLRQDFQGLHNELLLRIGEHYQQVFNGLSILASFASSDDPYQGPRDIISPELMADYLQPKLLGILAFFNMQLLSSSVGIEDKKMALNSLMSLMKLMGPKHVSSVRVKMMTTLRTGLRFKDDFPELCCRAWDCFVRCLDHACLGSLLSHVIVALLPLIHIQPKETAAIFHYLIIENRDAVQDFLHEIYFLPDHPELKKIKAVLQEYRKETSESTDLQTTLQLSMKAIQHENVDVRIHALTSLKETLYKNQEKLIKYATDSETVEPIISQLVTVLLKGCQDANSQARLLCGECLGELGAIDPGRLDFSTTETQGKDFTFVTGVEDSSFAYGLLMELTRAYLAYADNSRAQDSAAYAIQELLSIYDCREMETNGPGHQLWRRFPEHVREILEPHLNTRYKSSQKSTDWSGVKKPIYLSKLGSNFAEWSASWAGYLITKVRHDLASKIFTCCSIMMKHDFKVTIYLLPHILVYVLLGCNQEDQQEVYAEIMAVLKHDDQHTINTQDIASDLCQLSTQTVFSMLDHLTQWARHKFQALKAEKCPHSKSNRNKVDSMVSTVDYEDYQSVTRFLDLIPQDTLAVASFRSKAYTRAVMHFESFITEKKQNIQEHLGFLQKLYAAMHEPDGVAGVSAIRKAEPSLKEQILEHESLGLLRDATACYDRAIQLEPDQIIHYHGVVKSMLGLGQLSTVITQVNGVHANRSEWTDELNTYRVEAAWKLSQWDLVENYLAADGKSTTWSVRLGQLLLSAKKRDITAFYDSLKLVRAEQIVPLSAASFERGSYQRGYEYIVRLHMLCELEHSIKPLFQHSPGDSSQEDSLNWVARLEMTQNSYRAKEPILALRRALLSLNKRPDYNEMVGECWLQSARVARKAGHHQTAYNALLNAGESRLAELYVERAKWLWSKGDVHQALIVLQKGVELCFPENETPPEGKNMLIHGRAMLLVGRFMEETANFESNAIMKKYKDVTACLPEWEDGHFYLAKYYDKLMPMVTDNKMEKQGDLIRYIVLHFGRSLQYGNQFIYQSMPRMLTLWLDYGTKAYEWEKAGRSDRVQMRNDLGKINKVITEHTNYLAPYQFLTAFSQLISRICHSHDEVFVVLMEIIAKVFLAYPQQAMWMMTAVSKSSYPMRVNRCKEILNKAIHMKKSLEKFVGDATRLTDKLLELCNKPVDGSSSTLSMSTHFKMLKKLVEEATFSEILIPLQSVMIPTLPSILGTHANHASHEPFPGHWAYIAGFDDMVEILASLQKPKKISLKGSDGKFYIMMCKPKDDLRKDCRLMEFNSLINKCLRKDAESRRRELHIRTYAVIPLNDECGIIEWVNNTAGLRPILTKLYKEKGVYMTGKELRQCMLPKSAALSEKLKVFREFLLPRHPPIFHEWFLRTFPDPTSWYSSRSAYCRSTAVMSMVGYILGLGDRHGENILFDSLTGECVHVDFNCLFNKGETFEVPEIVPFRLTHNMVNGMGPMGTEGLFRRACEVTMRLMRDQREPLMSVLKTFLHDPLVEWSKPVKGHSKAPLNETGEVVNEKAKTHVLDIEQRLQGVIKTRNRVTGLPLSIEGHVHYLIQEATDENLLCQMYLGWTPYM
OUTCOME MEASURE: Ki

Reported Ki, molecule Nc1ncc(N2CCN(S(=O)(=O)c3cccs3)CC2)nc1-c1nc2ccccc2[nH]1 : ____ 100 to 1000 nM

Record request: Ki value, item CCOC(=O)C1CC1c1cnc(N)c(-c2nnc(-c3ccccc3)o2)n1 (stereo not shown) 100 to 1000 nM

Continuing:
What does the data say about its Ki? Entry: CCC(=O)N1CCN(c2cnc(N)c(-c3nnc(-c4ccc(CNC)cc4)o3)n2)CC1(C)C 1000 to 10000 nM

Find the recorded Ki belonging to CNCc1ccc(-c2nnc(-c3nc(N4CCC[C@H]4CO)cnc3N)o2)cc1 and report it. 100 to 1000 nM
